molecular target: HIPK3 (human); assay: radiometric filter-binding kinase assay, Kinase HotSpot; settings: compound 0.5 µM; ATP 10 µM
readout_name: residual activity (%)
Quick note: give the figure in %, leave out the unit.

Form: item CS(=O)(=O)CCNCc1ccc(-c2ccc3ncnc(Nc4ccc(OCc5cccc(F)c5)c(Cl)c4)c3c2)o1 ; test system HIPK3 (human); residual activity: 99.1

Form: item CCCCc1c(-c2ccc(OC)cc2)[nH]c2nccnc12 ; test system HIPK3 (human); residual activity: 99.9

Form: item CN(C)c1ccc(/C=C2\C(=O)Nc3ccccc32)cc1 ; test system HIPK3 (human); residual activity: 94.4

Form: item CN(C)S(=O)(=O)c1ccc2c(c1)/C(=C/c1cc3c([nH]1)CCCC3)C(=O)N2 ; test system HIPK3 (human); residual activity: 107

Form: item Cc1cncc2cccc(S(=O)(=O)N3CCCN(C(=O)CN)C[C@H]3C)c12 ; test system HIPK3 (human); residual activity: 105

Form: item COc1ccc(Cl)cc1NC(=O)Nc1cc(C)nc2ccccc12 ; test system HIPK3 (human); residual activity: 99.1

Form: item O=C1c2ccccc2-c2nc3nnnn3nc21 ; test system HIPK3 (human); residual activity: 101

Form: item NC(=O)c1cccc(-c2cc(Nc3ccc(OC(F)(F)F)cc3)ncn2)c1 ; test system HIPK3 (human); residual activity: 104

Source of measurements: the kinase profiling compilation of Christmann-Franck et al. (2016)
